Experiment: TD Phase (Groups 1 and 3): plasma and ocular tissue concentrations and pharmacokinetics of Compound 18 and its metabolite Compound 4 after once daily ocular instillation of Compound 18 nanosuspension for 7 days
Type: in vivo, New Zealand white rabbits
Conditions: male, New Zealand white, rabbit, vitreous humor, other: ocular instillation (eye drop), 0.8 mg/kg/day, TD Phase, Group 3, 2 h, Mean, BQL set to 0; read-out: Compound 18 Vitreous Humor Conc.
readout: concentration at 2 h (ng/mL)
Respond numerically; units are ng/mL and should not be typed.

In: Give the measured concentration at 2 h of CCCc1nn(C)c2c(=O)[nH]c(-c3cc(S(=O)(=O)N4CC(CCCO[N+](=O)[O-])C4)ccc3OCC)nc12 .
Out: 0.0228
